- experiment notes: Distribution between mouse plasma and brain (brain penetration, ip)
- Assay type: in vivo
- measurement conditions: mouse, plasma, intraperitoneal, 5 mg/kg; Table 8; groups of 3 mice (compound 3: ± SEM of 6 mice); read-out: Average [compound] plasma
experimental readout: concentration at 1 h (nM)
Give bare numbers, in nM.

O=C(Nc1ccc2sc(-c3ccc(F)c(F)c3)nc2c1)N1CCC(C(F)(F)F)C1 (stereo not drawn): 4150
O=C(Nc1ccc2sc(-c3ccc(F)c(F)c3)nc2c1)N1CCCCC1: 2520
O=C(Nc1ccc2sc(-c3ccc(F)c(F)c3)nc2c1)N1CCC(F)(F)C1: 2810
O=C(Nc1ccc2sc(-c3ccc(F)c(F)c3)nc2c1)N1CCC(F)CC1: 2510
O=C(Nc1ccc2sc(-c3ccc(F)c(F)c3)nc2c1)N1C[C@@H](F)[C@H](F)C1: 2190

Using the record for CN(C)C1CCN(C(=O)Nc2ccc3sc(-c4ccc(F)c(F)c4)nc3c2)C1 (stereo not drawn) , report its concentration at 1 h.
780

====

Please provide measured concentration at 1 h for the entries that follow.
- experiment notes: Distribution between mouse plasma and brain (brain penetration, ip)
- Format: in vivo
- measurement conditions: mouse, in vivo, 5 mg/kg, Table 8; groups of 3 mice (compound 3: ± SEM of 6 mice); read-out: Average [compound] plasma
- Method: For distribution of compounds between mouse plasma and brain, mice (in groups of 3) were injected with test compounds (5 mg/kg ip) and sacrificed at the indicated times for collection of plasma and brain. Compound was dissolved in 0.4 mL of dosing solution (7% Tween 80, 3% ethanol, 5% DMSO, 0.9% saline) for ip injections. […] Compound recovery was determined by liquid chromatography/tandem mass spectrometry analysis relative to a standard compound amount. […]
Numbers only, in nM.

O=C(Nc1ccc2sc(-c3ccc(F)c(F)c3)nc2c1)N1CC[C@H](F)C1: 2270

In the following, a different compound is considered.
Using the record for `O=C(Nc1ccc2sc(-c3ccc(F)c(F)c3)nc2c1)N1CC[C@@H](F)C1` , report its concentration at 1 h.
1200

====

- experiment notes: Rat pharmacokinetics, oral administration
- Type: in vivo
- Design: unit not given here
- measurement conditions: rat, in vivo, po, 20 mg/kg, Mean ± SEM (n = 2)
experimental readout: AUC(0-inf)
Give bare numbers.

Using the record for `O=C(Nc1ccc2sc(-c3ccc(F)c(F)c3)nc2c1)N1CC[C@H](F)C1` , report its AUC(0-inf).
6270

====

- experiment notes: Rat pharmacokinetics, intravenous administration
- Assay type: in vivo
- measurement conditions: rat, plasma, iv, 5 mg/kg, Mean ± SEM (n = 2), read-out: Plasma CL
experimental readout: clearance (mL/min/kg)
Numbers only, in mL/min/kg.

Using the record for O=C(Nc1ccc2sc(-c3ccc(F)c(F)c3)nc2c1)N1CC[C@H](F)C1 [Compound 1] , report its clearance.
9.35

====

- experiment notes: Distribution between mouse plasma and brain (brain penetration, ip)
- Type: in vivo
- measurement conditions: Table 14; mice, single ip dose 5 mg/kg, one hour post-dose; ± SEM of 3 mice (compound 3: 6 mice)
Please provide measured [compound]Plasma for the entries that follow.
Include the unit after the number when you answer.

Use these answered entries as a reference point.
O=C(Nc1ccc2sc(-c3cccc(F)c3F)nc2c1)N1CCCC1: 1.3 ± 0.406 µM
O=C(Nc1ccc2sc(-c3ccc(F)c(F)c3)nc2c1)N1CCC(C(F)(F)F)C1 (centres unmarked): 4.15 ± 1.368 µM
CN(C)C1CCN(C(=O)Nc2ccc3sc(-c4ccc(F)c(F)c4)nc3c2)C1 (centres unmarked): 0.780 ± 0.202 µM
O=C(Nc1ccc2sc(-c3ccc(F)c(F)c3)nc2c1)N1CC[C@@H](F)C1: 1.20 ± 0.270 µM

In the following, a different compound is considered.
Using the record for `O=C(Nc1ccc2sc(-c3ccc(F)c(F)c3)nc2c1)N1CCCCC1` , report its [compound]Plasma.
2.52 ± 0.185 µM

Where do these numbers come from? They come from patent US10399966B2.
